Conditions: acidic group
Entries are grouped by pKa into these classes: 0 = under 4, 1 = from 4 up to 10, 2 = 10 and over

Use these answered entries as a reference point.
compound	cat
O=C(O)Cn1cnnn1	0
N#CSc1ccc(O)cc1	1
Nc1nc(N)[nH+]c(O)n1	1
COc1ccc(S(=O)(=O)NCc2ccccc2)cc1	2
O=C(O)c1cccc[nH+]1	0

[Q] Each compound maps to one class by pKa. Which class for "O=C(O)Cc1ccccc1" ?
[A] 1

[Q] Each compound maps to one class by pKa. Which class for "CCCCCCP(=O)(CCCCCC)CCCCCC" ?
[A] 2

[Q] Each compound maps to one class by pKa. Which class for "Cc1cccc(CN(C)C)c1O" ?
[A] 2

[Q] Each compound maps to one class by pKa. Which class for "Cc1csc(C(=O)O)c1" ?
[A] 0

[Q] Each compound maps to one class by pKa. Which class for "O/C(=C\c1ccccn1)c1ccccc1" ?
[A] 2

[Q] Each compound maps to one class by pKa. Which class for "CCCCNC(O)=S" ?
[A] 0

[Q] Each compound maps to one class by pKa. Which class for C#CC#CC=C=CC(O)CCC(=O)O (centres undefined) ?
[A] 1

[Q] Each compound maps to one class by pKa. Which class for "O=C(O)C#CSc1ccccc1" ?
[A] 0

Taken from the pKa sets of Baltruschat and Czodrowski (2020).
